measured_on: T1, human PDL1 (recombinant, soluble) (human, UniProt Q9NZQ7 19-238)
T1 construct: also called hPDL1; hPD-L1
assay_details: PDL1/PD-1 competition ELISA; PD-1 coated; scFv
measured_property: Maximum Inhibition (%)
Just the number plus its unit, please.

Determine its reported Maximum Inhibition (%): PRO997/PRO908 (37-20-B03-sc01 scFv) (scFv, VL-linker-VH, VH4 CDR graft; PRO997 was made in CHO-S cells, PRO908 in bacteria; also called 37-20-B03 CDR) scFv: DIQMTQSPSSLSASVGDRVTITCQASQSIGTYLAWYQQKPGKAPKLLIYRAFILASGVPSRFSGSGSGTDFTLTISSLQPEDFATYYCQSNFYSDSTTIGPNAFGTGTKVTVLGGGGGSGGGGSGGGGSGGGGSQVQLQESGPGLVKPSETLSLTCKVSGFSFNSDYWIYWIRQPPGKGLEWIGSIYGGSSGNTQYASWAQGRVTISVDSSKNQFSLKLSSVTAADTAVYYCARGYVDYGGATDLWGQGTLVTVSS
100%

Determine its reported Maximum Inhibition (%): PRO1183 (33-03-G02-sc03 scFv) (scFv, also called 33_03_G02 sc03 Full) scFv: DFQLTQSPSSLSASVGDRVTITCQASQSINDYLAWYQQKPGKSPKLLIYKASTLASGVPSRFSGSGSGTDFTLTISSLQPEDFATYYCQQGYIITDIDNVFGTGTKVTVLGGGGGSGGGGSGGGGSGGGGSQSQLQESGPGLVKPSETLSLTCKASGFSFSSGYDMCWVRQPPGKGLEWIACVVAGSVDITYYASWAKGRVTISKDSSKNQVSLKLSSVTAADTAVYFCARKDAYSDAFNLWGQGTLVTVSS
99.8%

Determine its reported Maximum Inhibition (%): PRO1392 (33-03-G02-sc18 scFv) (scFv) scFv: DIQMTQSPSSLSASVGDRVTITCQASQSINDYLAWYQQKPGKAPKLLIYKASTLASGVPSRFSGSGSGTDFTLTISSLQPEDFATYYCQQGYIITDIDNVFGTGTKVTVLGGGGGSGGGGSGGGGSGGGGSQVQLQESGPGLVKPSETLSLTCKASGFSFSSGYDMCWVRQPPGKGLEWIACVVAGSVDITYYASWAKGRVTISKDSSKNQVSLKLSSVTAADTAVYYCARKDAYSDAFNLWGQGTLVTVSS
99.9%
